Target: T1, human DLL3 antigen (human, UniProt Q9NYJ7 27-492, limits assumed)
T1 construct: also called immobilized human DLL3; recombinant human DLL3
T1 sequence (looked up): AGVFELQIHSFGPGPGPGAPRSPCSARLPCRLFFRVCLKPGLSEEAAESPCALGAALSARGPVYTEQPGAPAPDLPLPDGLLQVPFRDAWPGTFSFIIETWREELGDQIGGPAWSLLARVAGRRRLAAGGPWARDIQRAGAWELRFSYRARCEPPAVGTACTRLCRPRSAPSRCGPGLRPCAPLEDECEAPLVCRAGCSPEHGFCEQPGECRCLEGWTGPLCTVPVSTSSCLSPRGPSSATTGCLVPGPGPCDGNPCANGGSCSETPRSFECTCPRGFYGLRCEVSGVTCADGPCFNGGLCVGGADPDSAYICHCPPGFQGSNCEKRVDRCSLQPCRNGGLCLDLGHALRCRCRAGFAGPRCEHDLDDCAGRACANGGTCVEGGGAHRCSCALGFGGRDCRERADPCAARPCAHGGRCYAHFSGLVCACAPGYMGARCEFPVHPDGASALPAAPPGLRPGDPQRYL
Assay: ELISA or flow cytometry screen
quantity-kind: binding result

Input SC16.149 (antibody, V domains shown, murine mAb) VH: QVQLKESGPGLVAPSQSLSITCAVSGFSLTSFGVHWVRQPPGKGLEWLGVIWAGGSTNYYSALMSRLSISIDNSKSQVFLKMNSLQTDDTAMYYCARDWEGWFAYWGQGTLVTVSA VL: DIQMNQSPSSLSASLGDTITITCHASQNINVWLSWYQQKPGNIPKLLIYKASHLHTGVPSRLSGSGSGTGFTLTISSLQPEDIATYYCQQGQSYPFTFGSGTTLEIK , output reported binding result.
binds

Fill in reported binding result for this entry: SC16.13 (antibody, V domains shown, murine mAb) VH: QVTLKESGPGILQPSQTLSLTCSFSGFSLSTSGMGVGWIRQPSGKGLEWLAHIWWDDVKRYNPALKSRLTISKDTSSSQVFLKIASVDTADTATYYCARIVSFDNDVVSAMDYWGQGTSVTVSS VL: QIVLTQSPALVSASPGEKVTMTCSASSSVSYMYWYQQKPRSSPKPWIYLTSNLASGVPARFSGSGSGTSYSLTISSMEAEDAATYYCQQWRSNPFTFGSGTKLEIK
binds
